Provide the recorded half-life for the entries that follow.
assay.explanation: Time taken to reduce 50% of the concentration of compound in blood plasma
Assay type: ADME, tissue-based
condition.info: human

>  <smiles.record>
COc1ccc(NC(=O)N2C(=O)C[C@@H]2Cc2ccccc2)cc1

>  <half-life>
12 h

$$$$
>  <smiles.record>
O=C1C[C@H](Cc2ccccc2)N1C(=O)NCCc1ccccc1

>  <half-life>
36 h

$$$$
>  <smiles.record>
CCN(Cc1ccccc1)C(=O)N1C(=O)C[C@@H]1Cc1ccccc1

>  <half-life>
48 h

$$$$
>  <smiles.record>
C[C@H]1C(=O)N(C(=O)NCc2ccncc2)[C@H]1Cc1ccccc1

>  <half-life>
36 h

$$$$
>  <smiles.record>
Cc1ccc(NC(=O)N2C(=O)C[C@@H]2Cc2ccccc2)cc1

>  <half-life>
< 12 h

$$$$

Continue with the next compound.
Query :: Could you share which half-life value was measured for O=C1C[C@H](Cc2ccccc2)N1C(=O)Nc1ccc(F)cc1 ?
Result :: < 12 h
